target: VOP 30A-4 (VZ+42/+530, mVZ+509) (synthetic); assay: EMSA; settings: tags: MBP fusion (pMal-c2), SP1 backbone
Sequence (chain, as listed by the source): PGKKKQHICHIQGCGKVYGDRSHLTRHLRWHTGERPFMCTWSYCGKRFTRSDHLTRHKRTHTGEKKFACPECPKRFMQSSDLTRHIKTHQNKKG
pKd: −log10 of the molar value.
MEASURE: pKd

What measured pKd goes with VOP 30A target (dsDNA) DNA 1: GCTGGGGGC DNA 2: GCCCCCAGC ?
> 10.70
